All figures here come from ChEMBL document CHEMBL1156933.

Target of assay: Coagulation factor IX (Homo sapiens, UniProt P00740)
Sequence (P00740 47-191 limits assumed): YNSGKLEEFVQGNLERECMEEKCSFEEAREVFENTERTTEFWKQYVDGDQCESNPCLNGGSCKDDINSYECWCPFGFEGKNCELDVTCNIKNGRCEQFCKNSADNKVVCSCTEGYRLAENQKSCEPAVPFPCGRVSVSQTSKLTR
Sequence (P00740 227-461 limits assumed): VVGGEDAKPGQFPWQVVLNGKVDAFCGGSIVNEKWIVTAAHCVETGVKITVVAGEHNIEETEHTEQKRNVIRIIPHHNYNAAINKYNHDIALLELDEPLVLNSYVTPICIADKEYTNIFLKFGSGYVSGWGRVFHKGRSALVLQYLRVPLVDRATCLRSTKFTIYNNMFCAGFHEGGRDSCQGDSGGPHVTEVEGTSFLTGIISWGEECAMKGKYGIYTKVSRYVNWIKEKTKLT
Protocol summary: Inhibition of human recombinant factor 9a by amidolytic assay
Assay endpoint: Ki (µM)
Kindly provide the numeric value in µM only, without the unit symbol.

Use these answered entries as a reference point.
N=C(N)c1cc2c(OCc3nc4ccccc4s3)cccc2s1	0.8
COc1ccc(-c2ccc3sc(C(=N)N)cc3c2)cc1OC	5.9
N=C(N)c1cc2ccc(OCc3ccc(Cl)cc3)cc2s1	0.45
N=C(N)c1cc2c(OCc3ccccc3)cccc2s1	1.5
COc1ccc(-c2ccc3cc(C(=N)N)sc3c2)cc1OC	24.2

Challenge: # lookup: Ki of `CCOC(=O)COc1ccc2cc(C(=N)N)sc2c1`
Response given: 3.8

Challenge: COC(=O)CC(Oc1ccc2cc(C(=N)N)sc2c1)c1ccc(Cl)cc1 (configuration not stated) , same question.
Response given: 0.028

----------
Here's a batch of compounds along with measured pKi for Coagulation factor X (Homo sapiens).
Keep in mind that pKi stands for -log10 of concentration in molar terms.

Solved entries:
COC(=O)CC(Oc1ccc2cc(C(=N)N)sc2c1)c1ccc(Cl)cc1 (centres undefined)	7.48
N=C(N)c1cc2c(OCc3ccccc3)cccc2s1	5.22

Challenge: Look up pKi for this compound: `N=C(N)c1cc2ccc(OCc3ccc(Cl)cc3)cc2s1`
Response given: 5.54

Challenge: What about `N=C(N)c1cc2ccc(OCc3ccc(F)c(F)c3)cc2s1` ?
Response given: 5.24

Challenge: Now consider `CCOC(=O)COc1ccc2cc(C(=N)N)sc2c1` and answer again.
Response given: 6.22

----------
Target of assay: Coagulation factor IX (Homo sapiens)
Protocol summary: Inhibition of human recombinant factor 9a by amidolytic assay
pKi: −log10 of the molar value.
Assign a class from recorded pKi; defined classes: label 0 = under 5, label 1 = from 5 up to 6, label 2 = 6 and over

Reference set, count: 4
COc1ccccc1COc1ccc2cc(C(=N)N)sc2c1	label 0
N=C(N)c1cc2ccc(OCc3ccc(F)c(F)c3)cc2s1	label 2
N=C(N)c1cc2ccc(OCCc3ccccc3)cc2s1	label 0
N=C(N)c1cc2ccc(OCc3cccs3)cc2s1	label 2

// next entry
Challenge: For this compound, which bin applies? `N=C(N)c1cc2c(-c3ccccc3)cccc2s1`
Response given: label 1

----------
This section lists Ki readings for Coagulation factor X (Homo sapiens, UniProt P00742).
Hi! Could you send only the number? It should be in µM, unit omitted.

Field: example entries. Status: answers known.
N=C(N)c1cc2ccc(OCc3cccs3)cc2s1	1.15
N=C(N)c1cc2c(OCc3nc4ccccc4s3)cccc2s1	2.6
N=C(N)c1cc2c(I)cccc2s1	22

Challenge: Which value of Ki has been reported for `COc1ccc(-c2ccc3sc(C(=N)N)cc3c2)cc1OC` in the records?
Response given: 11.9

----------
Target of assay: Coagulation factor IX (Homo sapiens)
Protocol summary: Inhibition of human recombinant factor 9a by amidolytic assay
Entries annotated with measured Ki
Give the number; µM is assumed, so skip it.

Challenge: Quick check: Ki of `Cc1ccc(COc2ccc3cc(C(=N)N)sc3c2)cc1` ?
Response given: 0.9

Challenge: Moving on to `N=C(N)c1cc2cc(-c3ccccc3)ccc2s1`
Response given: 8

Challenge: For `N=C(N)c1cc2c(I)cccc2s1` then?
Response given: 0.95

Challenge: And for `N=C(N)c1cc2ccc(OCc3cccnc3)cc2s1` ?
Response given: 1.05

Challenge: Lookup `CCOC(=O)COc1cccc2sc(C(=N)N)cc12`
Response given: 11.9

Challenge: What do you get for `N=C(N)c1cc2ccc(OCc3ccccc3Cl)cc2s1` ?
Response given: 7.2

Challenge: Another: CC(Oc1ccc2cc(C(=N)N)sc2c1)c1ccc(F)cc1 (stereo not drawn)
Response given: 11.3

Challenge: Also, `COC(=O)c1ccc(COc2ccc3cc(C(=N)N)sc3c2)cc1` please.
Response given: 11.3
